Reference source: PubChem BioAssay

# Measurement Notes: RPMI8226 myeloma cell viability, profiling panel, resazurin fluorescence, basal, 24 h, PK04 Diversity Set (AID 1180);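 note: RPMI8826 multiple myeloma cell line at 5000 cells per well; test concentration not given here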
# Recorded Conditions: higher = more signal
Assign class by z-score: not lower than -0.2 means yes; lower than -0.2 means no.

// below: answered molecules
CC(C)N1C(=O)c2ccccc2[C@](C)(C(=O)NCc2ccccc2)[C@@H]1c1ccc(CO)cc1	yes
COCCOC(=O)N1C(=O)[C@@]2(c3cc(C#CC4=CCCCC4)ccc31)[C@H](C(=O)Nc1nc3ccccc3s1)[C@H]1C(=O)O[C@H](c3ccccc3)[C@H](c3ccccc3)N1[C@@H]2c1ccc(OCCO)cc1	yes
CN(C)C(=O)[C@]1(Cc2ccccc2CN=[N+]=[N-])N=C(c2ccc(OCCCO)cc2)O[C@@H]1c1ccccc1CN=[N+]=[N-]	no
CCCCC(O)C1C=CC2C(=O)N(c3ccccc3)C(=O)C2N1Nc1ccccc1F (configuration not stated)	no

Textbook exercise: given the entry [N-]=[N+]=NCc1ccccc1[C@H]1OC(c2ccc(OCCCO)cc2)=N[C@@]1(Cc1ccccc1)C(=O)NCc1ccccc1 , state whether its z-score is greater than or equal to -0.2.
no

Textbook exercise: given the entry CC(C)N1C(=O)[C@@]2(Cc3ccccc31)c1ccccc1C(=O)N(C1CCCCC1)[C@H]2c1ccc(CO)cc1 , state whether its z-score is greater than or equal to -0.2.
yes

Textbook exercise: given the entry COc1ccc(C(=O)O[C@H]2CC[C@]3(C)C4=C(CCC3C2(C)C)[C@]2(C)CC[C@H]([C@H](C)CCCC(C)C)[C@@]2(C)CC4)cc1 (some centres not stated) , state whether its z-score is greater than or equal to -0.2.
yes

Textbook exercise: given the entry CN(C)C(=O)[C@]1(Cc2ccccc2N=[N+]=[N-])N=C(c2ccc(OCCCO)cc2)O[C@@H]1c1ccccc1 , state whether its z-score is greater than or equal to -0.2.
yes

Textbook exercise: given the entry COCC(=C=CC[C@@H](O)c1ccccc1OCCO)C[C@@H](O)c1cc(Cl)cc(Cl)c1O , state whether its z-score is greater than or equal to -0.2.
no

Textbook exercise: given the entry O=C1C[C@]2(c3ccc([N+](=O)[O-])cc3)C(=O)N(CCN3CCOCC3)c3cc(CO)ccc3[C@H]2N1C1CCCCC1 , state whether its z-score is greater than or equal to -0.2.
yes

Textbook exercise: given the entry CCOC(=O)C[C@H]1[C@H](OC(=O)Cc2ccc3c(c2)OCO3)[C@@H](NC(=O)c2ccc(-c3ccccc3)cc2)c2cc(OCCCO)ccc2N1C(=O)Cc1ccc(OC)cc1 , state whether its z-score is greater than or equal to -0.2.
yes

Textbook exercise: given the entry C=C(COC)/C(=C/C[C@@H](OC(C)=O)c1ccc(OCCO)cc1)c1cc(C(=O)OC)ccc1OC , state whether its z-score is greater than or equal to -0.2.
no

Textbook exercise: given the entry COc1cc2c(cc1OC)CN(C(=O)[C@H]1[C@@H]3C(=O)O[C@@H](c4ccccc4)[C@@H](c4ccccc4)N3[C@@H](c3ccc(O)cc3)[C@]13C(=O)Nc1ccc(C#CCNC(N)=O)cc13)CC2 , state whether its z-score is greater than or equal to -0.2.
yes

Textbook exercise: given the entry O=C1C2C=CC(C(O)C(c3ccccc3)c3ccccc3)N(n3cnnc3)C2C(=O)N1Cc1ccccc1 (configuration not stated) , state whether its z-score is greater than or equal to -0.2.
no

Textbook exercise: given the entry CC1CC/C=C\[C@H]2OC34C=CCN(Cn5nnc6ccccc65)C(=O)[C@H]3N(C(CO)C(C)C)C(=O)[C@@H]4C2C(=O)O1 (some centres not stated) , state whether its z-score is greater than or equal to -0.2.
yes

Textbook exercise: given the entry COCCOC(=O)N1C(=O)[C@@]2(c3cc(C#CCCO)ccc31)[C@H](C(=O)N1CCc3cc(OC)c(OC)cc3C1)[C@H]1C(=O)O[C@H](c3ccccc3)[C@H](c3ccccc3)N1[C@@H]2c1ccc(O)cc1 , state whether its z-score is greater than or equal to -0.2.
no

Textbook exercise: given the entry O=C1c2ccccc2[C@](Cc2ccccc2I)(C(=O)NC2CC2)[C@H](c2ccc(CO)cc2)N1C1CCCCC1 , state whether its z-score is greater than or equal to -0.2.
yes

Textbook exercise: given the entry O=C1O[C@H](c2ccccc2)[C@H](c2ccccc2)N2[C@H]1[C@@H](C(=O)Nc1nc3ccccc3s1)[C@]1(C(=O)Nc3ccc(C#CCCO)cc31)[C@H]2c1ccc(OCCO)cc1 , state whether its z-score is greater than or equal to -0.2.
no

Textbook exercise: given the entry COC(=O)C=C(CC(O)c1cccc(Cl)c1)OC (configuration not stated) , state whether its z-score is greater than or equal to -0.2.
no

Textbook exercise: given the entry COCCOC(=O)N1C(=O)[C@@]2(c3cc(C#CC4(O)CCCCCC4)ccc31)[C@H](c1ccc(O)cc1)N1[C@H](c3ccccc3)[C@H](c3ccccc3)OC(=O)[C@H]1[C@@H]2C(=O)Nc1nc2ccccc2s1 , state whether its z-score is greater than or equal to -0.2.
no
